Provenance of the data: paper PMC10005185

# system.tested: ABI1 with AtPYR1 (Arabidopsis thaliana)
# Construct: His; made in house
# Sequence (O49686 whole entry): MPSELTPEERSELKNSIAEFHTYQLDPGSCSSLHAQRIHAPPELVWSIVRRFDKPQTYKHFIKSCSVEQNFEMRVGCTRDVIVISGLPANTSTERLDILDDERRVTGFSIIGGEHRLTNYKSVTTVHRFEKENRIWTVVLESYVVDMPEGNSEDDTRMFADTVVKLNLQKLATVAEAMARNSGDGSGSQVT
# Sequence (P49597 whole entry partner): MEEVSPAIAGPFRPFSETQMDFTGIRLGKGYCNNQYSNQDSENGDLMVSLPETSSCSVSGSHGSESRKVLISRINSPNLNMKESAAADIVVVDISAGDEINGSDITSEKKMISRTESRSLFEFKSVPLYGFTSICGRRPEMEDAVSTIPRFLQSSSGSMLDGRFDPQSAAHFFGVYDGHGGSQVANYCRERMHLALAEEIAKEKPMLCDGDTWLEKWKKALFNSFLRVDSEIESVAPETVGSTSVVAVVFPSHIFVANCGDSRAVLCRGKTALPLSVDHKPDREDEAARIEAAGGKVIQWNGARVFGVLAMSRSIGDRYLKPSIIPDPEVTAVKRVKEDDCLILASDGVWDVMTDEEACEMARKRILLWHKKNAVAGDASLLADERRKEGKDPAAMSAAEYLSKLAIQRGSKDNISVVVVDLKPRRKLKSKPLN
# protocol.summary: PP2C inhibition assay, ABI1 with AtPYR1
# Assay type: biochemical
pIC50: −log10 of the molar value.
property: pIC50

{"molecule": "CC1=CC(=O)CC(C)(C)[C@@]1(O)/C=C/C(C)=C\\C(=O)O [ABA, abscisic acid, reference compound]", "system.tested": "ABI1 with AtPYR1 (Arabidopsis thaliana)", "property": "pIC50", "measured": 6.70}

----------
# Test system: Arabidopsis thaliana seeds (WT Col-0, CsPYL1 and CsPYL1^5m lines)
# protocol.summary: Seed germination assay
# Assay type: in vivo
# applied.conditions: Arabidopsis thaliana, read-out: Germination IC50, line expressing CsPYL1
pIC50: −log10 of the molar value.

{"compound": "CC1=CC(=O)CC(C)(C)[C@@]1(O)/C=C/C(C)=C\\C(=O)O [ABA, abscisic acid, reference compound]", "pIC50": 6.52}

----------
# system.tested: HAB1 with AtPYL4 (Arabidopsis thaliana, UniProt O80920)
Recorded IC50 for the following compounds

{"sample.smiles": "CCCN1C(=O)CCc2cc(NS(=O)(=O)Cc3ccc(C)cc3)ccc21", "system.tested": "HAB1 with AtPYL4 (Arabidopsis thaliana, UniProt O80920)", "IC50 [µM]": 1.88}
{"sample.smiles": "CCn1c(=O)cc(C)c2cc(CNS(=O)(=O)c3ccccc3)ccc21", "system.tested": "HAB1 with AtPYL4 (Arabidopsis thaliana, UniProt O80920)", "IC50 [µM]": 0.33}

----------
# system.tested: CsPYL1^5m:ΔNHAB1 (Citrus sinensis, UniProt A0A067E666, F137I/T135L/T153I/V112L/V168A)
# protocol.summary: biochemical
property: Kd (nM)

{"sample.smiles": "CCn1c(=O)cc(C)c2cc(CNS(=O)(=O)c3ccccc3)ccc21", "measured": 560}

----------
# system.tested: AtHAB1ΔN with CsPYL1^5m (Citrus sinensis, UniProt A0A067E666, F137I/T135L/T153I/V112L/V168A)
# Sequence (A0A067E666 1-209 V112L/T135L/F137I/T153I/V168A): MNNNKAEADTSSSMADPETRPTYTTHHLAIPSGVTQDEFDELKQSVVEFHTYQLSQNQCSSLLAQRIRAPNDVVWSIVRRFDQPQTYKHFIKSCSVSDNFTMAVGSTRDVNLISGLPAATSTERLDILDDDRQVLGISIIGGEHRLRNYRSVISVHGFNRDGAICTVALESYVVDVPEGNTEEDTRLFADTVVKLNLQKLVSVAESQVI
# Sequence (Q9CAJ0 179-511 partner): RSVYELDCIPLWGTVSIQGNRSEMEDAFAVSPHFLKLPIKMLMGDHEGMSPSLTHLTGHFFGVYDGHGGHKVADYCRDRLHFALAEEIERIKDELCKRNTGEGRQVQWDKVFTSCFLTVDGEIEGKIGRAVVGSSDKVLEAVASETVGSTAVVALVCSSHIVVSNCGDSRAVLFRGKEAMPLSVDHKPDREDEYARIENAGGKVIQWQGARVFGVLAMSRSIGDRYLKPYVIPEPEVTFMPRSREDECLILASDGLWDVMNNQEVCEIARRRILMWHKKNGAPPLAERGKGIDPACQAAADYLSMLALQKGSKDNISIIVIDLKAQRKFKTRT
# protocol.summary: PP2C inhibition assay, HAB1 with CsPYL1^5m
# Format: biochemical, Citrus sinensis (CsPYL1^5m); Arabidopsis thaliana (HAB1)
# applied.conditions: IC50 for inhibition of HAB1 (ΔNHAB1) in the presence of CsPYL1^5m, pNPP as substrate
pIC50: −log10 of the molar value.
property: pIC50

{"compound": "CCn1c(=O)cc(C)c2cc(CNS(=O)(=O)c3ccccc3)ccc21 [iSB09]", "measured": 6.50}
